Reference source: PubChem BioAssay (NCI)

Tested on: T-47D breast
Test Name: NCI tumour cell line growth inhibition, 48 h; in the data active = GI50 below about 0.43 µM; inactive = the rest
Possible outcomes: T = active, F = inactive

>  <Compound>
COc1cccc(CCNC(=O)CC(c2ccccc2)(c2ccccc2)c2ccccc2)c1

>  <Classification>
F

$$$$
>  <Compound>
Nc1nc(=S)c2ncn(C3OC(CO)C(O)C3O)c2[nH]1 (stereo unspecified)

>  <Classification>
F

$$$$
>  <Compound>
c1ccc(COCC[P+](c2ccccc2)(c2ccccc2)c2ccccc2)cc1

>  <Classification>
T

$$$$
>  <Compound>
Cc1cc(I)cc(CNCCN2CCOCC2)c1O

>  <Classification>
F

$$$$
>  <Compound>
CCCCOC(=O)/C=C\C(=O)NC(N)=O

>  <Classification>
F

$$$$
>  <Compound>
CCOC(=O)Nc1ccc2nc(N3CCCCCC3)sc2c1

>  <Classification>
F

$$$$

----------
// TGI lookup, one value per entry
Test system: SNB-19 CNS
Test Name: NCI tumour cell line growth inhibition, 48 h

>  <Molecule>
O=S(=O)(Nc1nccs1)c1ccc([As](=O)(O)O)cc1

>  <TGI>
> 100 µM

$$$$
>  <Molecule>
CCOC(=O)c1cc(C2=CCNC2=O)c(-c2cc(C)no2)[nH]1

>  <TGI>
> 100 µM

$$$$
>  <Molecule>
Cc1ccc2nc(Sc3c([N+](=O)[O-])ncn3C)[nH]c2c1

>  <TGI>
> 100 µM

$$$$
>  <Molecule>
O=C(/C=C/c1ccco1)Nc1ncc(Cc2cccc(C(F)(F)F)c2)s1

>  <TGI>
> 44.5 µM

$$$$
>  <Molecule>
COc1ccc(CN2C(=O)/C(=C\C(=O)c3ccc(OCCN4CCCC4)cc3)c3ccccc32)cc1

>  <TGI>
15.1 µM

$$$$
>  <Molecule>
CCCCC(O)(c1ccccc1)C(O)(c1ccccc1)c1c(F)c(F)c(F)c(F)c1F (configuration not stated)

>  <TGI>
> 100 µM

$$$$
>  <Molecule>
CCN(CC)C(=S)/N=C(\SC(=S)N(CC)CC)c1ccccc1

>  <TGI>
> 100 µM

$$$$
>  <Molecule>
N.N.N.N.N.N#Cc1nn[n-]n1.[Cl-].[Co+3]

>  <TGI>
> 100 µM

$$$$
>  <Molecule>
COC(=O)C(=O)C(C#N)c1cccc(Cl)c1 (configuration not stated)

>  <TGI>
> 100 µM

$$$$
>  <Molecule>
CC1OC(OC2C(OC(=O)[C@]34CCC(C)(C)CC3C3=CCC5[C@@]6(C)C[C@H](O)[C@H](OC7OC(COC8OC(CO)C(O)C(O)C8O)C(O)C(O)C7O)[C@@](C)(C(=O)O)C6CC[C@@]5(C)C3(C)CC4)OCC(O)C2O)C(O)C(O)C1OC1OCC(O)C(O)C1O (some centres not stated)

>  <TGI>
> 100 µM

$$$$
>  <Molecule>
CC12CCCC(C#N)(C1)OC2=O (configuration not stated)

>  <TGI>
> 100 µM

$$$$
>  <Molecule>
COc1ccc(C[n+]2cccc(O)c2)cc1

>  <TGI>
> 100 µM

$$$$
>  <Molecule>
Cc1ccccc1C=NC12CC3CC(CC(C3)C1)C2

>  <TGI>
> 100 µM

$$$$
>  <Molecule>
Cc1cc2nc3c(=O)[nH]c(=O)nc-3n(CC(O)C(O)C(O)CO)c2cc1N (configuration not stated)

>  <TGI>
> 100 µM

$$$$
>  <Molecule>
CCOC(=O)C1=C(C)NC(C)=C(C(=O)OCCNC(=O)c2ccc(N=[N+]=[N-])cc2)C1c1ccccc1C(F)(F)F (configuration not stated)

>  <TGI>
21.5 µM

$$$$
>  <Molecule>
COc1cccc(N2C(=O)/C(=C/c3ccc(N(CCC#N)CCC#N)cc3)N=C2c2cc([N+](=O)[O-])ccc2Cl)c1

>  <TGI>
> 100 µM

$$$$
>  <Molecule>
Cc1n[nH]c(=O)n1Nc1ccccc1

>  <TGI>
> 100 µM

$$$$
>  <Molecule>
Cc1ccc(NC(=O)CCc2nnc3s/c(=C\c4cccc([N+](=O)[O-])c4)c(=O)n23)cc1

>  <TGI>
> 100 µM

$$$$
>  <Molecule>
CCN(CC)CCCC(C)Nc1c2ccc(Cl)cc2nc2cc(Cl)ccc12 (configuration not stated)

>  <TGI>
40.8 µM

$$$$
>  <Molecule>
O=C(CN(Cc1ccccc1)Cc1ccccc1)N1CCc2c([nH]c3ccccc23)C1c1cccnc1 (configuration not stated)

>  <TGI>
> 100 µM

$$$$
>  <Molecule>
O=c1ccn(Cc2ccccc2CCl)c(=O)[nH]1

>  <TGI>
> 100 µM

$$$$
>  <Molecule>
COc1ccc(C(=O)N2CCN(c3ccc4c(c3)OCC(=O)N4)CC2)cc1OC

>  <TGI>
> 100 µM

$$$$
>  <Molecule>
CC(=O)c1cc2c(s1)C(=O)c1ccsc1C2=O

>  <TGI>
1.02 µM

$$$$
>  <Molecule>
Cc1ccc(N=NN(C)C(C)C(O)Cc2ccccc2)cc1 (configuration not stated)

>  <TGI>
> 100 µM

$$$$
>  <Molecule>
COc1ccc(NC(=S)C#N)cc1

>  <TGI>
> 100 µM

$$$$
>  <Molecule>
COc1ccc(N2C(=O)C(=O)N(C)C2=O)c2ccccc12

>  <TGI>
> 10 µM

$$$$
>  <Molecule>
O=C(O)C1CC(C2CCCCN2)CN2CCCCC12 (configuration not stated)

>  <TGI>
> 100 µM

$$$$

----------
Test system: SK-MEL-2 melanoma
Test Name: NCI tumour cell line growth inhibition, 48 h

>  <Compound>
Cc1cc2nc3c(=O)[nH]c(=O)nc-3n(CC(O)C(O)C(O)CO)c2cc1N (stereo unspecified)

>  <TGI>
> 100 µM

$$$$
>  <Compound>
Brc1c2c(c(Br)c3nsnc13)N=S=N2

>  <TGI>
51 µM

$$$$
>  <Compound>
O=[N+]([O-])c1ccc(NNN=Nc2ccc(-c3nc4ccccc4[nH]3)cc2)c([N+](=O)[O-])c1

>  <TGI>
88.6 µM

$$$$
>  <Compound>
Cc1cn(CC2=NC3CCCCC3N2)c(=O)[nH]c1=O (stereo unspecified)

>  <TGI>
> 100 µM

$$$$
>  <Compound>
Cc1ccc(S(=O)(=O)NN=C2C(C)(C)CC2(C)C)cc1

>  <TGI>
> 100 µM

$$$$
>  <Compound>
COC(=O)C1CC(c2ccc(Cl)cc2)=NO1 (stereo unspecified)

>  <TGI>
> 100 µM

$$$$

----------
Test system: UACC-257 melanoma
Test Name: NCI tumour cell line growth inhibition, 48 h
Quantity Kind: GI50

>  <Compound>
CC[O-].CC[O-].COc1ccc(C(=O)[CH-]C(C)=O)cc1OC.COc1ccc(C(=O)[CH-]C(C)=O)cc1OC.[Ti+4]

>  <Quantity Kind>
GI50

>  <Result>
> 100 µM

$$$$
>  <Compound>
CCOC(=O)Nc1ccc2nc(N3CCCCCC3)sc2c1

>  <Quantity Kind>
GI50

>  <Result>
15.2 µM

$$$$
>  <Compound>
COc1cc(-c2cc(-c3cccs3)c(C#N)c(N3CCOCC3)n2)cc(OC)c1OC

>  <Quantity Kind>
GI50

>  <Result>
3.22 µM

$$$$
>  <Compound>
CNCCCn1c2c(c3ccc(Cl)cc3c1=O)C(=O)c1cc(OC)cnc1-2

>  <Quantity Kind>
GI50

>  <Result>
2.24 µM

$$$$
>  <Compound>
Cc1cc(O[C@@H]2O[C@@H](C)[C@H](O)[C@@H](O)[C@H]2O)c2c3c(c(O[C@@H]4O[C@@H](C)[C@H](O)[C@@H](O)[C@H]4O)cc2c1)C(=O)c1c(O)cccc1C3=O

>  <Quantity Kind>
GI50

>  <Result>
> 30 µM

$$$$
>  <Compound>
Clc1ccc(C2CC(c3cccc(Nc4ccncc4)c3)=NN2c2ccccc2)cc1 (configuration not stated)

>  <Quantity Kind>
GI50

>  <Result>
1.8 µM

$$$$
>  <Compound>
Nc1nc(=S)c2ncn(C3OC(CO)C(O)C3O)c2[nH]1 (configuration not stated)

>  <Quantity Kind>
GI50

>  <Result>
31.8 µM

$$$$

----------
Test system: U251 CNS
Test Name: NCI tumour cell line growth inhibition, 48 h

>  <Molecule>
OC(c1ccccc1)C1CC2C=CC1C2 (stereo not given)

>  <TGI>
> 100 µM

$$$$
>  <Molecule>
CCOc1cc(/C=N/c2nc3cc4sc(/N=C/c5ccc(O)c(OCC)c5)nc4cc3s2)ccc1O

>  <TGI>
> 100 µM

$$$$
>  <Molecule>
COC(=O)CN=C1NC(=S)N(Cc2ccc(OC)cc2)C12CCCC2

>  <TGI>
> 100 µM

$$$$
>  <Molecule>
Cc1n[nH]c(=O)n1Nc1ccccc1

>  <TGI>
> 100 µM

$$$$
>  <Molecule>
O=c1ccc2c(Cl)cccc2o1

>  <TGI>
> 100 µM

$$$$
>  <Molecule>
COc1ccc(N2C(=O)C(=O)N(C)C2=O)c2ccccc12

>  <TGI>
> 10 µM

$$$$
>  <Molecule>
CN1CN(c2ccccc2)C2(CCN(C3Nc4ccccc4O3)CC2)C1=O (stereo not given)

>  <TGI>
33.3 µM

$$$$
>  <Molecule>
O=C1CC(C(=O)O)Cc2c(Br)ccc(O)c21 (stereo not given)

>  <TGI>
> 100 µM

$$$$
>  <Molecule>
COc1ccc(-c2[nH]c(-c3ccc(OC)cc3)c(-c3ccccn3)c2-c2ccccn2)cc1

>  <TGI>
> 100 µM

$$$$
>  <Molecule>
CON=C1C[C@]2(C[C@@H]3C[C@@H](C/C=C(\C)C[C@@H](C)/C=C/C=C4\CO[C@@H]5[C@H](O)C(C)=C[C@@H](C(=O)O3)[C@]45O)O2)O[C@H](/C(C)=C/C(C)C)[C@H]1C

>  <TGI>
24.3 µM

$$$$
